- testedOn: T1, glucagon receptor (target of the KD / T½ of Tables 1A, 1B and 2B) (Homo sapiens (Human), UniProt P47871 26-136)
- T1 construct: not shown: Human Fc carrier (and any linker) of the ECD-Fc fusion
- testDetails: not stated; 25° C.
The following binders are shown together with reported T½ values.
Answer with a number only, understood to be in min.

Here are 4 binders together with their reported answers.
H2-E7 (antibody, V domains shown) VH: QVQLVQSGAEVKKPGASVKVSCKASGYTFTDFSVHWVRQAPGQGLEWMGWYNLETDETSYADDFKGRVTMTRDTSTSTVYMELSSLRSEDTAVYYCVKSRGWSYGPPDYWGQGTTVTVSS VL: DIQMTQSPSSLSASVGDRVTITCRASQNIRTAVVWYQQKPGKAPKLLIYLATNRHSGVPSRFSGSGSGTDFTFTISSLQPEDIATYYCLQHWTYPFSFGGGTKLEIK ... 13.7
H3-H9 (antibody, V domains shown) VH: QVQLVQSGAEVKKPGASVKVSCKASGYTFTDFSVHWVRQAPGQGLEWMGWINTETDETSYADDFKGRVTMTRDTSTSTVYMELSSLRSEDTAVYYCVKSRWWSYGPPDYWGQGTTVTVSS VL: DIQMTQSPSSLSASVGDRVTITCRASQNIRTAVVWYQQKPGKAPKLLIYLATNRHSGVPSRFSGSGSGTDFTFTISSLQPEDIATYYCLQHWTYPFSFGGGTKLEIK ... 2.26
H2-A8 (antibody, V domains shown) VH: QVQLVQSGAEVKKPGASVKVSCKASGYTFTDFSVHWVRQAPGQGLEWMGWINTEFDFTSYADDFKGRVTMTRDTSTSTVYMELSSLRSEDTAVYYCVKSRGWSYGPPDYWGQGTTVTVSS VL: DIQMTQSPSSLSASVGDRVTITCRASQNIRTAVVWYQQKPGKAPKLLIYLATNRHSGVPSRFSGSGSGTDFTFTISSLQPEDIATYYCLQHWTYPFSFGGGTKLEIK ... 20.8
H3-F5 (antibody, V domains shown) VH: QVQLVQSGAEVKKPGASVKVSCKASGYTFTDFSVHWVRQAPGQGLEWMGWINTETDETSYADDFKGRVTMTRDTSTSTVYMELSSLRSEDTAVYYCVKSLFWSYGPPDYWGQGTTVTVSS VL: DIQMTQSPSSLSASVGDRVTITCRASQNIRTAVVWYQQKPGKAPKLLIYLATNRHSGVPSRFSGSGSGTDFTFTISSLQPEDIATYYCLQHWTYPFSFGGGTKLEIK ... 2.4

Given the binder H2-F10 (antibody, V domains shown) VH: QVQLVQSGAEVKKPGASVKVSCKASGYTFTDFSVHWVRQAPGQGLEWMGWINLEFDETSYADDFKGRVTMTRDTSTSTVYMELSSLRSEDTAVYYCVKSRGWSYGPPDYWGQGTTVTVSS VL: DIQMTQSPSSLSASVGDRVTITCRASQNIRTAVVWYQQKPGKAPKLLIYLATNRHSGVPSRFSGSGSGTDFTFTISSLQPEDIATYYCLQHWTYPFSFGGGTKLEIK , what is its reported T½?
21.6

Entry H2-F11 (antibody, V domains shown) VH: QVQLVQSGAEVKKPGASVKVSCKASGYTFTDFSVHWVRQAPGQGLEWMGWINTEFDYTSYADDFKGRVTMTRDTSTSTVYMELSSLRSEDTAVYYCVKSRGWSYGPPDYWGQGTTVTVSS VL: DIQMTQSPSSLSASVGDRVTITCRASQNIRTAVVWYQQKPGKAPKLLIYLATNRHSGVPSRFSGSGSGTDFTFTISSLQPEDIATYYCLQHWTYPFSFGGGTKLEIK has what T½?
17.8
